# TARGET_UNDER_TEST: MCL-1/Bim interaction (recombinant human MCL-1 protein, residues 171-327; biotinylated human Bim peptide, residues 51-76) (Homo sapiens (Human), UniProt Q07820)
# Sequence (Q07820 171-327): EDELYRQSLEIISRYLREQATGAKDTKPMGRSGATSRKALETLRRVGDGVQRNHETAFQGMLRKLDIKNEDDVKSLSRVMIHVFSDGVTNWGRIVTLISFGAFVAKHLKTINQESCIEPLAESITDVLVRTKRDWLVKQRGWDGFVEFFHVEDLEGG
# ASSAY_METHOD_TEXT: MCL-1/Bim Binding AlphaLISA Assay
# COND: 0.0625 nM 6xHis-Mcl-1 (171-327), 0.0625 nM biotinylated-Bim peptide
So basically: is IC50 under 0.07 nM? Then met. Not under? Then not met.

Just wondering, is IC50 of CCn1cc(C(=O)N[S@@]2(=O)=NC(=O)c3ccc4c(c3)N(C[C@@H]3CC[C@H]3[C@@H](OC)/C=C/C[C@H](C)[C@H]2C)C[C@@]2(CCCc3cc(Cl)ccc32)CO4)cn1 below 0.07 nM?
not met

Just wondering, is IC50 of COC(=O)[C@]1(C)C[C@H](NC(=O)N[S@@]2(=O)=NC(=O)c3ccc4c(c3)N(C[C@@H]3CC[C@H]3[C@@H](OC)/C=C/C[C@H](C)C2)C[C@@]2(CCCc3cc(Cl)ccc32)CO4)C1 below 0.07 nM?
not met

Just wondering, is IC50 of CO[C@H]1/C=C/C[C@H](C)C[S@@](=O)(NC(=O)NC23CC(OC)(C2)C3)=NC(=O)c2ccc3c(c2)N(C[C@@H]2CC[C@H]21)C[C@@]1(CCCc2cc(Cl)ccc21)CO3 below 0.07 nM?
met

Just wondering, is IC50 of CO[C@H]1/C=C/C[C@H](C)C[S@@](=O)(NC(=O)[C@H]2C[C@@H](C(C)(C)O)C2)=NC(=O)c2ccc3c(c2)N(C[C@@H]2CC[C@H]21)C[C@@]1(CCCc2cc(Cl)ccc21)CO3 below 0.07 nM?
not met

###

# TARGET_UNDER_TEST: MCL-1/Bim interaction (recombinant human MCL-1 protein, residues 171-327; biotinylated human Bim peptide, residues 51-76) (Homo sapiens (Human), UniProt Q07820)
# ASSAY_METHOD_TEXT: MCL-1/Bim Binding AlphaLISA Assay
# COND: 0.0625 nM 6xHis-Mcl-1 (171-327), 0.0625 nM biotinylated-Bim peptide
For each record, write down the corresponding IC50.
Show the value, then the unit it is measured in.

IC50 lookup needed for CO[C@H]1/C=C/C[C@H](C)C[S@@](=O)(NC(=O)N2CCC(OC(F)F)CC2)=NC(=O)c2ccc3c(c2)N(C[C@@H]2CC[C@H]21)C[C@@]1(CCCc2cc(Cl)ccc21)CO3 , thanks.
0.03 nM

IC50 lookup needed for CO[C@H]1/C=C/CCC[S@@](=O)(NC(=O)C2CCC2)=NC(=O)c2ccc3c(c2)N(C[C@@H]2CC[C@H]21)C[C@@]1(CCCc2cc(Cl)ccc21)CO3 , thanks.
3.1 nM

IC50 lookup needed for CO[C@H]1/C=C/CCC[S@@](=O)(NC(=O)CCc2ccccn2)=NC(=O)c2ccc3c(c2)N(C[C@@H]2CC[C@H]21)C[C@@]1(CCCc2cc(Cl)ccc21)CO3 , thanks.
0.1 nM

IC50 lookup needed for CO[C@H]1/C=C/C[C@H](C)[C@@H](C)[S@@](=O)(NC(=O)NC2CC2)=NC(=O)c2ccc3c(c2)N(C[C@@H]2CC[C@H]21)C[C@@]1(CCCc2cc(Cl)ccc21)CO3 , thanks.
0.217 nM

IC50 lookup needed for COCCOC1CN(C(=O)N[S@@]2(=O)=NC(=O)c3ccc4c(c3)N(C[C@@H]3CC[C@H]3[C@@H](OC)/C=C/C[C@H](C)C2)C[C@@]2(CCCc3cc(Cl)ccc32)CO4)C1 , thanks.
0.037 nM

IC50 lookup needed for CO[C@H]1/C=C/CCC[S@@](=O)(NC(=O)CCn2ncc3ccccc32)=NC(=O)c2ccc3c(c2)N(C[C@@H]2CC[C@H]21)C[C@@]1(CCCc2cc(Cl)ccc21)CO3 , thanks.
0.9 nM

IC50 lookup needed for CO[C@H]1/C=C/C[C@H](C)C[S@@](=O)(NC(=O)c2cnc(C)nc2)=NC(=O)c2ccc3c(c2)N(C[C@@H]2CC[C@H]21)C[C@@]1(CCCc2cc(Cl)ccc21)CO3 , thanks.
0.087 nM

IC50 lookup needed for COCCNC(=O)N[S@@]1(=O)=NC(=O)c2ccc3c(c2)N(C[C@@H]2CC[C@H]2[C@@H](OC)/C=C/C[C@H](C)C1)C[C@@]1(CCCc2cc(Cl)ccc21)CO3 , thanks.
0.038 nM

IC50 lookup needed for COc1nn(C)cc1C(=O)N[S@@]1(=O)=NC(=O)c2ccc3c(c2)N(C[C@@H]2CC[C@H]2[C@@H](OC)/C=C/[C@H](OCC(=O)N(C)C)[C@H](C)C1)C[C@@]1(CCCc2cc(Cl)ccc21)CO3 , thanks.
0.044 nM

IC50 lookup needed for CO[C@H]1/C=C/C[C@H](C)[C@@H](C)[S@@](=O)(NC(=O)c2cnn(C)c2)=NC(=O)c2ccc3c(c2)N(C[C@@H]2CC[C@H]21)C[C@@]1(CCCc2cc(Cl)ccc21)CO3 , thanks.
0.112 nM

IC50 lookup needed for CO[C@H]1/C=C/C[C@H](C)C[S@@](=O)(NC(=O)[C@H]2C[C@@](C)(O)C2)=NC(=O)c2ccc3c(c2)N(C[C@@H]2CC[C@H]21)C[C@@]1(CCCc2cc(Cl)ccc21)CO3 , thanks.
0.035 nM

IC50 lookup needed for COc1nn(C)cc1C(=O)N[S@@]1(=O)=NC(=O)c2ccc3c(c2)N(C[C@@H]2CC[C@H]2[C@@H](OC)/C=C/[C@H](OC(=O)N(C)C)[C@H](C)C1C(=O)N(C)C)C[C@@]1(CCCc2cc(Cl)ccc21)CO3 (stereo partly shown) , thanks.
5.27 nM

IC50 lookup needed for COc1nn(C)cc1C(=O)N[S@@]1(=O)=NC(=O)c2ccc3c(c2)N(C[C@@H]2CC[C@H]2[C@@H](O)/C=C\C[C@H](C)[C@H]1C)C[C@@]1(CCCc2cc(Cl)ccc21)CO3 , thanks.
0.019 nM

IC50 lookup needed for CO[C@H]1/C=C/C[C@H](C)C[S@@](=O)(NC(=O)Nc2ccnc(C)c2)=NC(=O)c2ccc3c(c2)N(C[C@@H]2CC[C@H]21)C[C@@]1(CCCc2cc(Cl)ccc21)CO3 , thanks.
0.187 nM

IC50 lookup needed for CO[C@H]1/C=C/C[C@H](C)C[S@@](=O)(NC(=O)c2cc3n(c2)C[C@@H](C)OC3)=NC(=O)c2ccc3c(c2)N(C[C@@H]2CC[C@H]21)C[C@@]1(CCCc2cc(Cl)ccc21)CO3 , thanks.
0.222 nM

IC50 lookup needed for C[C@H]1C/C=C/[C@H](OCC2CC2)[C@@H]2CC[C@H]2CN2C[C@@]3(CCCc4cc(Cl)ccc43)COc3ccc(cc32)C(=O)N=[S@](=O)(NC(=O)c2cnn(C)c2)C1 , thanks.
0.194 nM

###

# TARGET_UNDER_TEST: MCL-1/Bim interaction (recombinant human MCL-1 protein, residues 171-327; biotinylated human Bim peptide, residues 51-76) (Homo sapiens (Human), UniProt Q07820)
# ASSAY_METHOD_TEXT: MCL-1/Bim Binding AlphaLISA Assay
# COND: 0.0625 nM 6xHis-Mcl-1 (171-327), 0.0625 nM biotinylated-Bim peptide
For each record, write down the corresponding IC50.
Give your result in nM as a bare value.

IC50 lookup needed for COCC(=O)NS1(=O)=NC(=O)c2ccc3c(c2)N(C[C@@H]2CC[C@H]2[C@@H](OC)/C=C/CCC1)C[C@@]1(CCCc2cc(Cl)ccc21)CO3 (single isomer, unassigned) [Example 8] , thanks.
0.7

IC50 lookup needed for COc1nc(OC)c(C(=O)N[S@@]2(=O)=NC(=O)c3ccc4c(c3)N(C[C@@H]3CC[C@H]3[C@@H](OC)/C=C/C[C@H](C)C2)C[C@@]2(CCCc3cc(Cl)ccc32)CO4)c(OC)n1 [Example 459] , thanks.
0.085

IC50 lookup needed for COc1nn(C)cc1C(=O)N[S@@]1(=O)=NC(=O)c2ccc3c(c2)N(C[C@@H]2CC[C@H]2[C@@H](OC)/C=C/CCC1)C[C@@]1(CCCc2cc(Cl)ccc21)CO3 [Example 389] , thanks.
0.075

###

For each record, write down the corresponding IC50.
# TARGET_UNDER_TEST: MCL-1/Bim interaction (recombinant human MCL-1 protein, residues 171-327; biotinylated human Bim peptide, residues 51-76) (Homo sapiens (Human), UniProt Q07820)
# ASSAY_METHOD_TEXT: MCL-1/Bim Binding AlphaLISA Assay
# COND: 0.0625 nM 6xHis-Mcl-1 (171-327), 0.0625 nM biotinylated-Bim peptide
Give your result in nM as a bare value.

IC50 lookup needed for COC(=O)N1CCn2cc(C(=O)N[S@@]3(=O)=NC(=O)c4ccc5c(c4)N(C[C@@H]4CC[C@H]4[C@@H](OC)/C=C/C[C@H](C)C3)C[C@@]3(CCCc4cc(Cl)ccc43)CO5)cc2C1 [Example 177] , thanks.
0.129

IC50 lookup needed for CO[C@H]1/C=C/CCC[S@@](=O)(NC(=O)C2COC2)=NC(=O)c2ccc3c(c2)N(C[C@@H]2CC[C@H]21)C[C@@]1(CCCc2cc(Cl)ccc21)CO3 [Example 24] , thanks.
0.2

IC50 lookup needed for CO[C@H]1/C=C/CCC[S@@](=O)(NC(=O)Cc2cnccn2)=NC(=O)c2ccc3c(c2)N(C[C@@H]2CC[C@H]21)C[C@@]1(CCCc2cc(Cl)ccc21)CO3 [Example 20] , thanks.
0.5

IC50 lookup needed for CNC1CN(C(=O)N[S@@]2(=O)=NC(=O)c3ccc4c(c3)N(C[C@@H]3CC[C@H]3[C@@H](OC)/C=C/C[C@H](C)C2)C[C@@]2(CCCc3cc(Cl)ccc32)CO4)C1 [Example 294] , thanks.
0.129

IC50 lookup needed for CO[C@H]1/C=C/C[C@H](C)C[S@@](=O)(NC(=O)COC2CCOCC2)=NC(=O)c2ccc3c(c2)N(C[C@@H]2CC[C@H]21)C[C@@]1(CCCc2cc(Cl)ccc21)CO3 [Example 106] , thanks.
0.1

IC50 lookup needed for CO[C@H]1/C=C/C[C@H](C)C[S@@](=O)(NC(=O)N[C@H]2C[C@@H](COC(=O)N(C)C)C2)=NC(=O)c2ccc3c(c2)N(C[C@@H]2CC[C@H]21)C[C@@]1(CCCc2cc(Cl)ccc21)CO3 [Example 336] , thanks.
0.1

Attribution: patent US10703733B2
